Method summary: Amcenestrant PK parameters at steady state in patients
Type: in vivo, human
Measurement setup: female, human, plasma, oral, 200 mg, amcenestrant 200 mg with palbociclib, steady state Day 21, N=8; read-out: Cmax (arithmetic mean)
Quantity name: Cmax
Reply with a number, then the unit it belongs to.

According to the records, this compound `O=C(O)c1ccc2c(c1)CCCC(c1ccc(Cl)cc1Cl)=C2c1ccc(O[C@H]2CCN(CCCF)C2)cc1` displays Cmax of 2.06 µg/mL

* * *

Method summary: Amcenestrant PK parameters at steady state in patients
Type: in vivo, human
Measurement setup: female, human, plasma, oral, 400 mg, amcenestrant 400 mg with palbociclib, steady state Day 21, N=5; read-out: Cmax [geometric mean]
Quantity name: Cmax (ng/mL)
# output: bare number, implied unit ng/mL

The recorded Cmax for entry `O=C(O)c1ccc2c(c1)CCCC(c1ccc(Cl)cc1Cl)=C2c1ccc(O[C@H]2CCN(CCCF)C2)cc1` equals 3450

* * *

Method summary: Amcenestrant PK parameters at steady state in patients
Assay type: in vivo, human
Measurement setup: human, plasma, oral, 400 mg, amcenestrant 400 mg monotherapy, steady state, N=13; read-out: AUC0-24h [geometric mean]
Quantity name: AUC(0-t) (µg·h/mL)
All answers are understood in µg·h/mL, so give the number only.

Value of AUC(0-t) reported for the compound O=C(O)c1ccc2c(c1)CCCC(c1ccc(Cl)cc1Cl)=C2c1ccc(O[C@H]2CCN(CCCF)C2)cc1 [Amcenestrant] is 40.4

* * *

Method summary: Amcenestrant PK parameters at steady state in patients
Format: in vivo, human
Measurement setup: female, human, plasma, oral, 400 mg, amcenestrant 400 mg with palbociclib, steady state Day 21, N=5; read-out: AUC0-24h [geometric mean]
Quantity name: AUC(0-t) (ng·h/mL)
Respond numerically; units are ng·h/mL and should not be typed.

AUC(0-t) in this record for `O=C(O)c1ccc2c(c1)CCCC(c1ccc(Cl)cc1Cl)=C2c1ccc(O[C@H]2CCN(CCCF)C2)cc1` : 31400

* * *

Method summary: Amcenestrant PK parameters at steady state in patients
Assay type: in vivo, human
Measurement setup: female, human, plasma, oral, 400 mg, amcenestrant 400 mg with palbociclib, steady state Day 21, N=5; read-out: AUC0-24h (arithmetic mean) (converted)
Quantity name: AUC(0-t) (ng·h/mL)
Lab book: enter the figure in ng·h/mL, no units written.

In plain terms, `O=C(O)c1ccc2c(c1)CCCC(c1ccc(Cl)cc1Cl)=C2c1ccc(O[C@H]2CCN(CCCF)C2)cc1` has a documented AUC(0-t) of 33100

* * *

Method summary: Amcenestrant PK parameters at steady state in patients
Format: in vivo, human
Measurement setup: female, human, plasma, oral, 200 mg, amcenestrant 200 mg with palbociclib, steady state Day 21, N=8; read-out: AUC0-24h (arithmetic mean) (converted)
Quantity name: AUC(0-t) (ng·h/mL)
Quick reminder: number only, in ng·h/mL, skip the unit.

Form: compound = `O=C(O)c1ccc2c(c1)CCCC(c1ccc(Cl)cc1Cl)=C2c1ccc(O[C@H]2CCN(CCCF)C2)cc1` ; AUC(0-t) = 20600

* * *

Method summary: Amcenestrant PK parameters at steady state in patients
Format: in vivo, human
Measurement setup: female, human, plasma, oral, 200 mg; read-out: Tmax (median)
Quantity name: Tmax
Please answer using the number first and the unit second.

// Tmax value for `O=C(O)c1ccc2c(c1)CCCC(c1ccc(Cl)cc1Cl)=C2c1ccc(O[C@H]2CCN(CCCF)C2)cc1` : 4.88 h

* * *

Method summary: Amcenestrant PK parameters at steady state in patients
Assay type: in vivo, human
Measurement setup: human, plasma, oral, 400 mg, amcenestrant 400 mg monotherapy, steady state, N=13; read-out: Cmax (arithmetic mean)
Quantity name: Cmax (ng/mL)
State the answer as a number, implicitly in ng/mL.

The recorded Cmax for entry `O=C(O)c1ccc2c(c1)CCCC(c1ccc(Cl)cc1Cl)=C2c1ccc(O[C@H]2CCN(CCCF)C2)cc1` equals 4380

* * *

Method summary: Amcenestrant PK parameters at steady state in patients
Assay type: in vivo, human
Measurement setup: human, plasma, oral, 400 mg, amcenestrant 400 mg monotherapy, steady state, N=13; read-out: Ctrough (arithmetic mean)
Quantity name: concentration at 0 h
Answer format reminder: number followed by unit.

Recorded concentration at 0 h (compound `O=C(O)c1ccc2c(c1)CCCC(c1ccc(Cl)cc1Cl)=C2c1ccc(O[C@H]2CCN(CCCF)C2)cc1` ): 630 ng/mL

* * *

Method summary: Amcenestrant PK parameters at steady state in patients
Type: in vivo, human
Measurement setup: human, plasma, oral, 200 mg, amcenestrant 200 mg with palbociclib, steady state Day 21, N=8; read-out: Cmax [geometric mean]
Quantity name: Cmax (ng/mL)
Dear colleague, please return just the value in ng/mL, with no unit written.

The compound listed as `O=C(O)c1ccc2c(c1)CCCC(c1ccc(Cl)cc1Cl)=C2c1ccc(O[C@H]2CCN(CCCF)C2)cc1` has a reported Cmax of 1940

* * *

Method summary: Amcenestrant PK parameters at steady state in patients
Type: in vivo, human
Measurement setup: human, plasma, oral, 400 mg, amcenestrant 400 mg monotherapy, steady state, N=13; read-out: Cmax [geometric mean]
Quantity name: Cmax (ng/mL)
State the answer as a number, implicitly in ng/mL.

Entry `O=C(O)c1ccc2c(c1)CCCC(c1ccc(Cl)cc1Cl)=C2c1ccc(O[C@H]2CCN(CCCF)C2)cc1` , Cmax reported as 4220

* * *

Method summary: Amcenestrant PK parameters at steady state in patients
Format: in vivo, human
Measurement setup: female, human, plasma, oral, 400 mg; read-out: Tmax (median)
Quantity name: Tmax (h)
Quick reminder: number only, in h, skip the unit.

Memo: `O=C(O)c1ccc2c(c1)CCCC(c1ccc(Cl)cc1Cl)=C2c1ccc(O[C@H]2CCN(CCCF)C2)cc1` , reported Tmax: 4
